Target: HLA-A*32:07
Test: IEDB peptide-MHC binding, purified MHC/competitive/fluorescence; filed as Kd, often an IC50 or EC50 that approximates it; bounds were set here for any values at or beyond the usual limits of such assays
Settings: source organism: human gammaherpesvirus 4
MEASUREMENT_TYPE: pKd
Quick note: pKd means taking -log10 of the concentration in moles per liter.

Give a short answer stating reported pKd for "MMAKSNSPF" .
7.00

----------
Biological target: HLA-B*08:01
Experiment: IEDB peptide-MHC binding, purified MHC/direct/fluorescence; filed as Kd, often an IC50 or EC50 that approximates it; bounds were set here for any values at or beyond the usual limits of such assays
Conditions: source organism: Cryptosporidium parvum
pKd: −log10 of the molar value.
MEASUREMENT_TYPE: pKd

Give a short answer stating reported pKd for "KHNSAESAK" .
≤ 4.70
